ASSAY METHOD TEXT: Chromatographic Hydrophobicity Index (CHI) lipophilicity at three pHs, C-18 gradient HPLC
Assay type: physicochemical
CONDITION PARAMETERS: from pH 10.5 mobile phase; read-out: CHI log P
MEASUREMENT LABEL: chromatographic logP

>>> value_measured("CCN(CCO)CCCC(C)Nc1ccnc2cc(Cl)ccc12 (stereo not shown) [HCQ, hydroxy-chloroquine]")
2.13

###

The following molecules are shown together with reported log k (AGP) values.
Test system: AGP
ASSAY METHOD TEXT: Literature AGP binding by equilibrium dialysis
MEASUREMENT LABEL: log k (AGP)

>>> value_measured("CNC(=C[N+](=O)[O-])NCCSCc1csc(CN(C)C)n1")
-0.2
>>> value_measured("NC(=O)N1c2ccccc2C=Cc2ccccc21 [Carbamazepine]")
0.3
>>> value_measured("CC(C)NCC(O)COc1cccc2ccccc12 (centres unmarked)")
0.8
>>> value_measured("COC(=O)C1=C(C)NC(C)=C(C(=O)OCCN(C)Cc2ccccc2)C1c1cccc([N+](=O)[O-])c1 (centres unmarked)")
0.8
>>> value_measured("CC(=O)Nc1ccc(O)cc1")
-1.5
